Recorded IC50 values for a group of binders are listed next.
assay-system: biotinylated human PCSK9 (UniProt Q8NBP7 31-692, biotinylated (sites not given))
assay-method-text: competition binding ELISA (PCSK9-LDLR)

anti-PCSK9 antibody 508.20.04b (antibody, V domains shown) VH: EVQLVESGGGLVQPGGSLRLSCAASGFTFTGYAIHWVRQAPGKGLEWVARISPANGNTNYADSVKGRFTISADTSKNTAYLQMNSLRAEDTAVYYCARWIGSRELYIMDYWGQGTLVTVSS VL: DIQMTQSPSSLSASVGDRVTITCRASQDVSTAVAWYQQKPGKAPKLLIYSASFLYSGVPSRFSGSGSGTDFTLTISSLQPEDFATYYCQQSYPAPATFGQGTKVEIK	0.92 nM

# return recorded IC50 for input anti-PCSK9 antibody 508.20.06 (antibody, V domains shown) VH: EVQLVESGGGLVQPGGSLRLSCAASGFTFTGYAIHWVRQAPGKGLEWVARISPANGNTNYADSVKGRFTISADTSKNTAYLQMNSLRAEDTAVYYCARWIGSRELYIMDYWGQGTLVTVSS VL: DIQMTQSPSSLSASVGDRVTITCRASQDVSTAVAWYQQKPGKAPKLLIYSASFLYSGVPSRFSGSGSGTDFTLTISSLQPEDFATYYCQQSYPSPATFGQGTKVEIK
1 nM

# return recorded IC50 for input anti-PCSK9 antibody 508.20.84 (antibody, V domains shown) VH: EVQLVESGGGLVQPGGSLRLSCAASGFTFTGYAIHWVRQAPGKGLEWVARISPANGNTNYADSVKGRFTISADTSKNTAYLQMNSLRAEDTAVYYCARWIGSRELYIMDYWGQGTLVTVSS VL: DIQMTQSPSSLSASVGDRVTITCRASQDVSTAVAWYQQKPGKAPKLLIYSASFLYSGVPSRFSGSGSGTDFTLTISSLQPEDFATYYCQQSYPAPSTFGQGTKVEIK
1.39 nM
